experimentalTarget: Recombinant human renin (Homo sapiens)
experimentSummary: Inhibitory activity against human renin (fluorogenic peptide substrate)
Assay type: biochemical
conditions: 37° C. for 1 hour, read-out: IC50
pIC50: −log10 of the molar value.
readout: pIC50

# count of solved cases: 2
COCCCOc1nc([C@@H](C)N(C(=O)[C@H]2CNCCO2)C2CC2)cc2ccccc12 yielded pIC50 of 8.48

Per the records, this compound ( COC(=O)NCCCn1nc([C@@H](C)N(C(=O)[C@H]2CNCCO2)C2CC2)c2ccc(CN(C)C)cc21 ) has pIC50 equal to 8.46

A. CCc1cc([C@@H](C)N(C(=O)[C@H]2CNCCO2)C2CC2)cc(CCCCOC)n1
B. CCc1cc([C@@H](C)N(C(=O)[C@H]2CNCCO2)C2CC2)cc(OCCNC(=O)OC)n1
input: // task: argmin of pIC50 over [ A , B ] State your choice using its label.
output: B
(B: 8.47, A: 8.70)

====

experimentalTarget: Recombinant human renin (Homo sapiens)
experimentSummary: Inhibitory activity against human renin (fluorogenic peptide substrate)
Assay type: biochemical
conditions: 50% inhibitory concentration (IC50) against human renin, 37° C. for 1 hour
readout: IC50 (nM)

a. COC(=O)NCCCc1nc(OC)cc([C@@H](C)N(C(=O)[C@H]2CNC[C@@H](C)O2)C2CC2)n1
b. COC(=O)NCCCc1nc([C@@H](C)N(C(=O)[C@H]2CNCCO2)C2CC2)sc1-c1cccc(F)c1
c. COC(=O)NCCCn1cc([C@@H](C)N(C(=O)[C@H]2CNCCO2)C2CC2)nc1-c1ccccc1Cl
d. COC(=O)NCCCn1cc([C@@H](C)N(C(=O)[C@H]2CNC[C@@H](CF)O2)C2CC2)nc1C1CCOCC1
e. COC(=O)NCCCc1cc([C@@H](C)N(C(=O)[C@H]2CNCCO2)C2CC2)sc1-c1cnn(C)c1
input: Could you put the items above in increasing order of their IC50? # answer = labels listed in requested order
output: e, c, d, a, b

====

experimentalTarget: Recombinant human renin (Homo sapiens, UniProt P00797)
Sequence (P00797 67-406): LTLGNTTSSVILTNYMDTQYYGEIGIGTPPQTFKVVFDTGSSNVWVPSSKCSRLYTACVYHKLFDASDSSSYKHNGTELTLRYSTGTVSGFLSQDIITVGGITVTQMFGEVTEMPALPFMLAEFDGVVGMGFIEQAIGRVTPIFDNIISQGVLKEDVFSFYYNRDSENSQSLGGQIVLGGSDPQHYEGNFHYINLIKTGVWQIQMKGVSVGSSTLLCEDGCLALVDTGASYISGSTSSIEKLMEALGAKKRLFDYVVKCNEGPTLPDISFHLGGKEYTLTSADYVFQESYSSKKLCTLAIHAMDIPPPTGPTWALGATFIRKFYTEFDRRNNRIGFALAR
experimentSummary: Inhibitory activity against human renin (fluorogenic peptide substrate)
Type: biochemical
conditions: 37° C. for 1 hour, read-out: IC50
readout: IC50 (nM)

Here are 3 molecules together with their reported answers.
IC50 measured on COCCCc1cn(C)c2ncc([C@@H](C)N(C(=O)[C@H]3CNCCO3)C3CC3)cc12 = 4.8

Entry under test: COCCCc1cn(C)c2ccc([C@@H](C)N(C(=O)[C@H]3CNCCO3)C3CC3)cc12 . Its IC50 was 1.5

Form: molecule = COC(=O)NCCCn1cc([C@H](C)N(C(=O)[C@H]2CNCCO2)C2CC2)c2ccc(C)nc21 ; IC50 = 1

I. COCCCn1ncc2c(F)cc([C@@H](C)N(C(=O)[C@H]3CNCCO3)C3CC3)cc21
II. CCc1ccc2c([C@@H](C)N(C(=O)[C@H]3CNCCO3)C3CC3)nn(CCCNC(=O)OC)c2n1
III. CC(=O)NCCn1nc(C)c2ccc([C@@H](C)N(C(=O)[C@H]3CNCCO3)C3CC3)cc21
input: Order the records by IC50, with each subsequent value no larger than the one before. Response field: labels, in requested order.
output: III, I, II

1. CCOc1ccnc2c([C@@H](C)N(C(=O)[C@H]3CNCCO3)C3CC3)cn(CCCCOC)c12
2. COC(=O)NCCCn1nc([C@@H](C)N(C(=O)[C@H]2CNCCO2)C2CC2)c2ccc(C3CC3)cc21
input: Between these two entries, 1 and 2 , state which has the higher IC50. Lab log: write the label of the selected item as the result.
output: 1
(1: 2.5 nM, 2: 0.9 nM)

====

experimentalTarget: Recombinant human renin (Homo sapiens)
experimentSummary: Inhibitory activity against human renin (fluorogenic peptide substrate)
Format: biochemical
conditions: 37° C. for 1 hour, read-out: IC50
pIC50: −log10 of the molar value.
readout: pIC50

Please review the following examples before continuing.
Record COCCCc1nn(C)c2ccc([C@@H](C)N(C(=O)[C@H]3CNCCO3)C3CC3)cc12 [Example 26] / Recombinant human renin (Homo sapiens), pIC50 recorded as 8.47

Entry COCCCN1CC(C)(C)c2ccc([C@@H](C)N(C(=O)[C@H]3CNCCO3)C3CC3)cc21 [Example 46] : pIC50 on Recombinant human renin (Homo sapiens) = 8.82

P. COC(=O)NCCCn1nc([C@@H](C)N(C(=O)[C@H]2CNCCO2)C2CC2)c2ccc(C)cc21 [Example 29]
Q. COCCCOc1cc([C@@H](C)N(C(=O)[C@H]2CNCCO2)C2CC2)cc2c1OCCC2 [Example 19]
input: Just tell me: smaller pIC50 value, P or Q ? Your choice should be expressed through its label.
output: Q

====

experimentalTarget: Recombinant human renin (Homo sapiens)
experimentSummary: Inhibitory activity against human renin (fluorogenic peptide substrate)
Assay type: biochemical
conditions: 50% inhibitory concentration (IC50) against human renin, 37° C. for 1 hour
Procedure: Inhibitory Activity Against Human Renin A substrate of synthetic peptide (Nma-KHPFH LVIHK(Dnp)-NH2) and test compound were mixed, and fluorescence intensity was assayed using a fluorophotometer before starting an enzymatic reaction (exciting wavelength: 340 nm, measuring wavelength: 460 nm). […]
readout: IC50 (nM)

# count of solved cases: 5
Just so you know, measured IC50 for COC[C@@H]1CNC[C@H](C(=O)N(C2CC2)[C@H](C)c2cn(CCCNC(=O)OC)c(C3CCCCC3)n2)O1 came out at 0.4

Memo: COC(=O)NCCCc1cc([C@@H](C)N(C(=O)[C@H]2CNC[C@@H](C)O2)C2CC2)cc(C2CC2)n1 , reported IC50: 0.4

Reported IC50 for C[C@H](c1cn(Cc2cccc(OC(F)(F)F)c2)c(-c2ccccc2)n1)N(C(=O)[C@H]1CNCCO1)C1CC1 was 6.9

For COC(=O)NCCCn1nc([C@@H](C)N(C(=O)[C@H]2CNC[C@@H](C(=O)OC)O2)C2CC2)c2ccc(C)nc21 the molecule record lists IC50 as 0.5

Consider CCc1nc([C@@H](C)N(C(=O)[C@H]2CNC[C@@H](COC)O2)C2CC2)cc2c1ncn2CCCOC . Its measured IC50 is 0.6

A. CCc1nc([C@@H](C)N(C(=O)[C@H]2CNC[C@@H](COC)O2)C2CC2)cc2c1ccn2CCCOC
B. C[C@@H]1CNC[C@H](C(=O)N(C2CC2)[C@H](C)c2cc(Cc3ccccc3)c(-c3ccccc3-c3nnn[nH]3)s2)O1
input: So which one has the bigger IC50 here, A or B ? Indicate your choice by writing its label.
output: B

====

experimentalTarget: Recombinant human renin (Homo sapiens, UniProt P00797)
experimentSummary: Inhibitory activity against human renin (fluorogenic peptide substrate)
Type: biochemical
conditions: 50% inhibitory concentration (IC50) against human renin, 37° C. for 1 hour
readout: IC50 (nM)

A. CCOc1cc([C@@H](C)N(C(=O)[C@H]2CNCCO2)C2CC2)cc(CCCNC(=O)OC)n1 [Example 237]
B. COCCNc1ncc([C@@H](C)N(C(=O)[C@H]2CNCCO2)C2CC2)nc1CCCNC(=O)OC [Example 444]
C. COC(=O)NCCCc1cc([C@@H](C)N(C(=O)[C@H]2CNCCO2)C2CC2)nn1-c1ccc(F)cc1 [Example 221]
input: Rank the compounds listed above in increasing order of IC50. // rank by listing labels in the order requested
output: C, A, B

====

experimentalTarget: Recombinant human renin (Homo sapiens, UniProt P00797)
experimentSummary: Inhibitory activity against human renin (fluorogenic peptide substrate)
Format: biochemical
conditions: 50% inhibitory concentration (IC50) against human renin, 37° C. for 1 hour
pIC50: −log10 of the molar value.
readout: pIC50

Would you please look over these solved cases?
Item CCc1nc([C@@H](C)N(C(=O)[C@H]2CNCCO2)C2CC2)cc2c1ccn2Cc1ccccc1 ; assay system Recombinant human renin (Homo sapiens, UniProt P00797); pIC50 reported as 8.60

Note to self: pIC50 of COC[C@@H]1CNC[C@H](C(=O)N(C2CC2)[C@@H](C)c2nn(CCCNC(=O)OC)c(-c3ccccn3)c2C)O1 with Recombinant human renin (Homo sapiens, UniProt P00797) was 8.92

Record COC(=O)NCCCc1c(F)c([C@@H](C)N(C(=O)[C@H]2CNCCO2)C2CC2)nn1-c1ccccc1 has Recombinant human renin (Homo sapiens, UniProt P00797) pIC50 equal to 9.00

With Recombinant human renin (Homo sapiens, UniProt P00797) as the test system, COC[C@@H]1CNC[C@H](C(=O)N(C2CC2)[C@H](C)c2nc(CCCNC(=O)OC)c(-c3cccc(Cl)c3)s2)O1 showed pIC50 of 8.46

P. CCc1cc([C@@H](C)N(C(=O)[C@H]2CNCCO2)C2CC2)nc2c1cnn2CCCOC
Q. COC(=O)NCCCn1cc([C@@H](C)N(C(=O)[C@H]2CNCCO2)C2CC2)nc1-c1ccccc1
input: Identify the item whose pIC50 is the smaller number: P or Q Label of pick, please.
output: P
(P: 8.05, Q: 9.52)

Where these numbers come from: patent US9556159B2
